- TARGET: HIV-integrase (Human immunodeficiency virus type 1 group M subtype B, UniProt P12497)
- Construct: Recombinant integrase (0.26 ng) was incubated with the beads
- ASSAY_NAME: HIV-Integrase Inhibition Activity (SPA bead integration assay with P33 labeled target DNA)
- Assay type: biochemical
- SETTINGS: recombinant integrase, class symbols; read-out: in vitro activity

| COMPOUND | IC50 |
| --- | --- |
| CN(C)C(=O)C(=O)NC12CCC(CC1)Cn1c2nc(C(=O)NCc2cccs2)c(O)c1=O | < 10 nM |
| Cc1cc(CNC(=O)c2nc3n(c(=O)c2O)CC2CCC3(N(C)C(=O)C(=O)N(C)Cc3cnn(C)c3C)CC2)ccc1F | < 10 nM |
| O=C(NC12CCC(CC1)Cn1c2nc(C(=O)NCc2ccc(F)cc2)c(O)c1=O)c1ccnc(N2CCOCC2)c1 | < 10 nM |
| CN(C)C(=O)C(=O)NC12CCC(CC1)Cn1c2nc(C(=O)NCc2ccc(F)cc2Cl)c(O)c1=O | < 10 nM |
| CN(C)C(=O)C(=O)NC12CCC(CC1)Cn1c2nc(C(=O)NCc2ccc(Cl)c(Cl)c2)c(O)c1=O | < 10 nM |
| CN(CC(F)(F)F)C(=O)C(=O)NC12CCC(CC1)Cn1c2nc(C(=O)NCc2ccc(F)cc2)c(O)c1=O | < 10 nM |
| CN(C)C(=O)C(=O)NC12CCC(CC1)Cn1c2nc(C(=O)NCCOc2ccccc2)c(O)c1=O | < 10 nM |
| CN(C)C(=O)C(=O)NC12CCC(CC1)Cn1c2nc(C(=O)NCc2ccc(F)cc2-c2ccccc2)c(O)c1=O | < 10 nM |
| O=C(NC12CCC(CC1)Cn1c2nc(C(=O)NCc2ccc(F)cc2)c(O)c1=O)C(=O)N1CC(F)(F)C1 | < 10 nM |
| CC(C)CN(C)C(=O)C(=O)NC12CCC(CC1)Cn1c2nc(C(=O)NCc2ccc(F)cc2)c(O)c1=O | < 10 nM |
| CN(C)C(=O)C(=O)NC12CCC(CC1)Cn1c2nc(C(=O)NCCc2ccc(S(N)(=O)=O)cc2)c(O)c1=O | > 100 nM |
| NC12CCC(CC1)Cn1c2nc(C(=O)NCc2ccc(F)cc2)c(O)c1=O | > 100 nM |
| CC(=O)N1CCC[C@H]1C(=O)NC12CCC(CC1)Cn1c2nc(C(=O)NCc2ccc(F)c(C)c2)c(O)c1=O | < 10 nM |
| CN(C)C(=O)C(=O)NC12CCC(CC1)Cn1c2nc(C(=O)NCc2ccc(F)cc2F)c(O)c1=O | < 10 nM |
| CN(CC1CCCO1)C(=O)C(=O)NC12CCC(CC1)Cn1c2nc(C(=O)NCc2ccc(F)cc2)c(O)c1=O (centres unmarked) | < 10 nM |
| O=C(NC12CCC(CC1)Cn1c2nc(C(=O)NCc2ccc(F)cc2)c(O)c1=O)c1ccccn1 | < 10 nM |
| NC12CCC(CC1)n1c2nc(C(=O)NCc2ccc(F)cc2)c(O)c1=O | 10 to 100 nM |
| CS(=O)(=O)N1CCCC[C@H]1C(=O)NC12CCC(CC1)Cn1c2nc(C(=O)NCc2ccc(F)cc2)c(O)c1=O | < 10 nM |
| Cc1cc(CNC(=O)c2nc3n(c(=O)c2O)CC2CCC3(NC(=O)C(=O)N(C)C)CC2)ccc1F | < 10 nM |
| CS(=O)(=O)N1CCCC1C(=O)NC12CCC(CC1)Cn1c2nc(C(=O)NCc2ccc(F)cc2)c(O)c1=O (stereo in doubt) | < 10 nM |
| Cc1cc(CNC(=O)c2nc3n(c(=O)c2O)CC2CCC3(NC(=O)C(=O)N(C)CC(F)(F)F)CC2)ccc1F | < 10 nM |
| CC(NC(=O)c1nc2n(c(=O)c1O)CC1CCC2(NC(=O)C(=O)N(C)C)CC1)c1ccccc1 (centres unmarked) | < 10 nM |
| Cc1ncn(C)c1C(=O)NC12CCC(CC1)Cn1c2nc(C(=O)NCc2ccc(F)cc2)c(O)c1=O | 10 to 100 nM |
| CN(C)C(=O)C(=O)N(C)C12CCC(CC1)Cn1c2nc(C(=O)NCc2ccc3c(c2)OCO3)c(O)c1=O | < 10 nM |
| CN(C)C(=O)C(=O)NC12CCC(CC1)Cn1c2nc(C(=O)NCc2ccc(O)cc2)c(O)c1=O | 10 to 100 nM |
| O=C(NC12CCC(Cn3c1nc(C(=O)NCc1ccc(F)cc1)c(O)c3=O)C2)OCc1ccccc1 (centres unmarked) | < 10 nM |
| CNC(=O)c1cn(C(C)(C)C(=O)NC23CCC(CC2)Cn2c3nc(C(=O)NCc3ccc(F)c(C)c3)c(O)c2=O)nn1 | < 10 nM |
| COc1ccc(CNC(=O)c2nc3n(c(=O)c2O)CC2CCC3(NC(=O)C(=O)N(C)C)CC2)c(OC)c1 | 10 to 100 nM |
| CN(C)C(=O)C(=O)NC12CCC(CC1)Cn1c2nc(C(=O)NCCc2ccc(O)cc2)c(O)c1=O | > 100 nM |

Source of measurements: patent US8129398B2
